target: T1, proprotein convertase subtilisin/kexin type 9 (PCSK9) (human, UniProt Q8NBP7 31-692); experiment: phage spot ELISA;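 further: phage clones bound to PCSK9 or PCSK9Δhelix by ELISA, noise being the same phage on NeutrAvidin, positive when signal above 0.4 and signal:noise above 2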
T1 construct: His-tagged full-length PCSK9 in TR-FRET and SPR, biotinylated in phage ELISA; secreted protein is autoprocessed (prodomain plus catalytic/CRD chain starting at S153); also called rec.PCSK9; His-PCSK9
T1 sequence (Q8NBP7 other isoform, or with tags, fused parts or gaps limits assumed): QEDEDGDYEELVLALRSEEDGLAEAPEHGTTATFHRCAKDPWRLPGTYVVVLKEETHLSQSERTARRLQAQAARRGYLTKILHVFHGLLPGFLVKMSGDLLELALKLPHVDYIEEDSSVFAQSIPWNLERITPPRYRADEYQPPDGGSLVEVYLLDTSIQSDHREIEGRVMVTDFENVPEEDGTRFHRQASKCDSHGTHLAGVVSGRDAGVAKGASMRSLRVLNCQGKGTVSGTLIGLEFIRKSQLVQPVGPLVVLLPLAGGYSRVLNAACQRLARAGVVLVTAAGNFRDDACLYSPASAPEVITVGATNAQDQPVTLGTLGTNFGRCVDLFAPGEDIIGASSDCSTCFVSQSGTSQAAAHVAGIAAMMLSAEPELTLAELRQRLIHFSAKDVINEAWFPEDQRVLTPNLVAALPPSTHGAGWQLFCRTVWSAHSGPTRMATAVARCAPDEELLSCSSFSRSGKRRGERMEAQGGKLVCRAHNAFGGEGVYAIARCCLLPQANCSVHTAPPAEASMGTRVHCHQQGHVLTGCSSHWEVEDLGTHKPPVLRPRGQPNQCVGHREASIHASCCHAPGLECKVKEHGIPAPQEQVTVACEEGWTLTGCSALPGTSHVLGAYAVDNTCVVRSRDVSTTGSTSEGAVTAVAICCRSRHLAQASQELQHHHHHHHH
observable: s/n ratio

- binder: "TAFTSWEEYLDWVGSGEHQFYSYRGVDVYR [SEQ ID NO 324]"
  observed value: 22.3
- binder: "TAFTSWEEYLDWVGSGSCSWNVERIRGCSV [SEQ ID NO 311]"
  observed value: 18.8
- binder: "TAFTSWEEYLDWVGSGCPFYDWRCSDFS [SEQ ID NO 328]"
  observed value: 25
- binder: "TAFTSWEEYLDWVGSGPLLWNLQKVH [SEQ ID NO 310]"
  observed value: 23.5
- binder: "TAFTSWEEYLDWVGSGNELWNINRLRSS [SEQ ID NO 317]"
  observed value: 12
- binder: "TAFTSWEEYLDWVGSGEDVVCYGRVDYMPLCV [SEQ ID NO 330]"
  observed value: 25.2
- binder: "TAFTSWEEYLDWVGSGVVLWNHSRIL [SEQ ID NO 313]"
  observed value: 26.8
